target: T1, Mouse MMP-9 (R&D, 909-MM), APMA-activated (mouse, UniProt P41245 108-730, limits assumed); assay: Ki,app, enzyme inhibition assay (fluorogenic peptide substrate), medium-scale sFab
T1 construct: also called mMMP-9; mouse MMP-9 (R&D Systems #909-MM-010)
T1 sequence (P41245 108-730 limits assumed): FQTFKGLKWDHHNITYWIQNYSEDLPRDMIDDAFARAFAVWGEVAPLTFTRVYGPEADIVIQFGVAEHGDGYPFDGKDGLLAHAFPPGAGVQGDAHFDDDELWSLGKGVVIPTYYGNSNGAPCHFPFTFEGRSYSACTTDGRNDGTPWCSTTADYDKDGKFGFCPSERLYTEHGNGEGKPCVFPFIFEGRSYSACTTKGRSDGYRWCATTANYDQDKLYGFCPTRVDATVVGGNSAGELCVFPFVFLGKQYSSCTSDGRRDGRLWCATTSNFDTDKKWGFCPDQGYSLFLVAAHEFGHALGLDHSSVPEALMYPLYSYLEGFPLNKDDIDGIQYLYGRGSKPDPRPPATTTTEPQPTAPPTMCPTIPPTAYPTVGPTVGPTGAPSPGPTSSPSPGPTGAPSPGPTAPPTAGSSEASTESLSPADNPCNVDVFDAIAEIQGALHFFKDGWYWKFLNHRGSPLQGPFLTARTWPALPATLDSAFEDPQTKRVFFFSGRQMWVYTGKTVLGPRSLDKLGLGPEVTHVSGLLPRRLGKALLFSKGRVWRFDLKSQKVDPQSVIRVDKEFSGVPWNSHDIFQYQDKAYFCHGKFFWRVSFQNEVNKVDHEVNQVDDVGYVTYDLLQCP
outcome measure: pKi
Lab note: report pKi as minus log10 of the concentration in molar units, number only.

[Q] pKi for M0256-D11 (Fab, V domains shown, sFab; variable domains only; also called M256-D11; 539A-M0256-D11) VH: EVQLLESGGGLVQPGGSLRLSCAASGFTFSHYDMWWVRQAPGKGLEWVSVIYSSGGPTFYADSVKGRFTISRDNSKNTLYLQMNSLRAEDTAVYYCAKDRAYGDYVGWNGFDYWGQGTLVTVSS VL: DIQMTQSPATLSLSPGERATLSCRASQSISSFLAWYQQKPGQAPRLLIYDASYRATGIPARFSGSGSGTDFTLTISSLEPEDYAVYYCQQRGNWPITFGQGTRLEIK ?
[A] 9.22
